biological target: Keap1 (His/GST) (Homo sapiens, UniProt Q14145); test: biochemical
Sequence (Q14145 whole entry): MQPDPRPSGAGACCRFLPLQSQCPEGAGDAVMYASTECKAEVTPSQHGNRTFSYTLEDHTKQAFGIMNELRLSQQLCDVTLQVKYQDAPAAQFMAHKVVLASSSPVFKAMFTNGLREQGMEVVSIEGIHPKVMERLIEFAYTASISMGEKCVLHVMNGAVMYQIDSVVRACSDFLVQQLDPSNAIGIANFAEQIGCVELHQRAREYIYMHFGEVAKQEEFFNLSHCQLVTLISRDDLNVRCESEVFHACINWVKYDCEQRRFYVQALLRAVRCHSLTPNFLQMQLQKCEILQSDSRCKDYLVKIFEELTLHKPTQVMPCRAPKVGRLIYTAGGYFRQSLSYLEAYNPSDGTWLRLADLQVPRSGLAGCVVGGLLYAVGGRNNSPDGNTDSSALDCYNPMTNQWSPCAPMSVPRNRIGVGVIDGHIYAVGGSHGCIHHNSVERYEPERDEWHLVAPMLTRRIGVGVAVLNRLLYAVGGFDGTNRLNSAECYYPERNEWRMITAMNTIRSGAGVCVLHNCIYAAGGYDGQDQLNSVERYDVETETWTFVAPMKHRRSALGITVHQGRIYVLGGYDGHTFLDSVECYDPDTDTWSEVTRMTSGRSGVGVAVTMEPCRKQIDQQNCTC
Where a name gives a salt, the structure may show the parent alone.
Catalogue of log10 of IC50 values
reported_property: log10 of IC50 (log10 of the value in µM)

[[record]]
compound = "Cc1sc2c(c1C)C(c1ccc(Cl)cc1)=NC(CC(=O)NCCCOCCOCCOCCCNC(=O)[C@]13CCC(C)(C)C[C@H]1[C@H]1C(=O)C=C4[C@@]5(C)C=C(C#N)C(=O)C(C)(C)[C@@H]5CC[C@@]4(C)[C@]1(C)CC3)c1nnc(C)n1-2 (some centres unmarked)"
target_desc = "Keap1 (His/GST) (Homo sapiens, UniProt Q14145)"
reported_property = "log10 of IC50"
reading = 2.69

[[record]]
compound = "COC1=CC(=O)C(O)=C/C1=C\\C=C\\c1ccccc1"
target_desc = "Keap1 (His/GST) (Homo sapiens, UniProt Q14145)"
reported_property = "log10 of IC50"
reading = 1.39

[[record]]
compound = "COC(=O)/C=C/C(=O)OC [DMF, dimethyl fumarate]"
target_desc = "Keap1 (His/GST) (Homo sapiens, UniProt Q14145)"
reported_property = "log10 of IC50"
reading = 2.42

[[record]]
compound = "COC(=O)[C@]12CCC(C)(C)C[C@H]1[C@H]1C(=O)C=C3[C@@]4(C)C=C(C#N)C(=O)C(C)(C)[C@@H]4CC[C@@]3(C)[C@]1(C)CC2"
target_desc = "Keap1 (His/GST) (Homo sapiens, UniProt Q14145)"
reported_property = "log10 of IC50"
reading = 2.01

[[record]]
compound = "CC1(C)CC[C@]2(C(=O)O)CC[C@]3(C)[C@H](C(=O)C=C4[C@@]5(C)C=C(C#N)C(=O)C(C)(C)[C@@H]5CC[C@]43C)[C@@H]2C1"
target_desc = "Keap1 (His/GST) (Homo sapiens, UniProt Q14145)"
reported_property = "log10 of IC50"
reading = 2.35

